# Test System: HIV-1 protease (Human immunodeficiency virus type 1 group M subtype B, UniProt P04585)
Readout: IC50

Input Cc1coc2c1C(=O)C(=O)c1c-2ccc2c1CCCC2(C)CO (stereo not shown) . Output IC50: > 200 µM

----------
# Test System: Chymotrypsin (Bos taurus)
pIC50: −log10 of the molar value.
Provide the reported pIC50 of each item.

1. Cc1coc2c1C(=O)C(=O)c1c-2ccc2c1CCCC2(C)CO (centres unmarked) [Compound 2, Tanshinone IIB]    < 3.70

Let us move to another entry and its pIC50.
Readout pIC50 for Cc1cccc2c3c(ccc12)C1=C(C(=O)C3=O)[C@@H](C)CO1 [Compound 6, Dihydrotanshinone I] , test system Chymotrypsin (Bos taurus), was < 3.70

----------
# Test System: SARS-CoV PL^pro (Severe acute respiratory syndrome coronavirus)
# Assay type: biochemical
Exam item: assign 1.0 to entries whose k5 is below 0.03 min⁻¹ and 0.0 to entries at or above 0.03 min⁻¹. Note that a value of exactly 0.03 min⁻¹ receives 0.0.

1. C[C@H]1COC2=C1C(=O)C(=O)c1c2ccc2c1CCCC2(C)C    0.0
2. Cc1coc2c1C(=O)C(=O)c1c-2ccc2c1CCCC2(C)CO (stereo not drawn)    1.0

IN: Dear reviewer, please state whether COC(=O)[C@@]1(C)CCCc2c1ccc1c2C(=O)C(=O)c2c(C)coc2-1 [Compound 3, Methyl tanshinonate] has k5 strictly beneath 0.03 min⁻¹.
OUT: 1.0

IN: Dear reviewer, please state whether Cc1coc2c1C(=O)C(=O)c1c-2ccc2c1CCCC2(C)C has k5 strictly beneath 0.03 min⁻¹.
OUT: 0.0

IN: Dear reviewer, please state whether Cc1cccc2c3c(ccc12)C1=C(C(=O)C3=O)[C@@H](C)CO1 [Compound 6, Dihydrotanshinone I] has k5 strictly beneath 0.03 min⁻¹.
OUT: 0.0

----------
# Test System: UniProt:P0C6U8
# Assay type: biochemical
Provide the reported k6 of each item.

Examples from the recorded data:
1. C[C@H]1COC2=C1C(=O)C(=O)c1c2ccc2c1CCCC2(C)C    0.001406 ± 0.0001 min⁻¹
2. Cc1coc2c1C(=O)C(=O)c1c-2ccc2c(C)cccc12    0.003349 ± 0.0003 min⁻¹
3. COC(=O)[C@@]1(C)CCCc2c1ccc1c2C(=O)C(=O)c2c(C)coc2-1 [Compound 3, Methyl tanshinonate]    0.002657 ± 0.0002 min⁻¹
4. Cc1coc2c1C(=O)C(=O)c1c-2ccc2c1CCCC2(C)C    0.008485 ± 0.0001 min⁻¹
5. Cc1cccc2c3c(ccc12)C1=C(C(=O)C3=O)[C@@H](C)CO1 [Compound 6, Dihydrotanshinone I]    0.003175 ± 0.0003 min⁻¹

Let us move to another entry and its k6.
Input Cc1coc2c1C(=O)C(=O)c1c-2ccc2c1CCCC2(C)CO (stereo not drawn) . Output k6: 0.004704 ± 0.0002 min⁻¹
